tested on: SCC-25 cells; assay: Cellular proliferation assay (CellTiter-Glo, day 5); type: cell-based; settings: read-out: The compound of Formula I IC50, compound of Formula I alone
observable: pIC50
The meaning of pIC50 here: minus log10 of the concentration in molar units.

## Input Which pIC50 is reported for this compound? COCOC[C@H]1C[C@H]2COc3c(Sc4cnc(N5CCC6(CC5)CO[C@@H](C)[C@H]6N)c(CO)n4)ccnc3N2C1
## Output 5.09

* * *

system: CAL 27 cells; assay: Cellular proliferation assay (CellTiter-Glo, day 5); format: cell-based; settings: Homo sapiens, read-out: The compound of Formula I IC50, compound of Formula I alone
observable: IC50 (nM)
Kindly provide the numeric value in nM only, without the unit symbol.

## Input Which IC50 is reported for this compound? COCOC[C@H]1C[C@H]2COc3c(Sc4cnc(N5CCC6(CC5)CO[C@@H](C)[C@H]6N)c(CO)n4)ccnc3N2C1
## Output 112
